# Test system: T. b. brucei ISMR1
# assay.name: microbe, parasite or virus in culture
# Assay type: cell-based, Trypanosoma brucei brucei
# assay.conditions: Trypanosoma brucei, read-out: ISMR1 EC50
pEC50: −log10 of the molar value.
Note to self: values exactly at 6 are Condition met. So pEC50 at or above 6 is Condition met, below is Condition not met.

Completed entries (count: 2):
>>> label("Nc1ncnc2c1c(-c1ccccn1)cn2[C@@H]1O[C@H](CO)[C@@H](O)[C@H]1O")
"Condition met"
>>> label("N=C(N)c1ccc(OCCCCCOc2ccc(C(=N)N)cc2)cc1")
"Condition met"

Query string: pEC50 >= 6 for N=C(N)c1ccc(/N=N/Nc2ccc(C(=N)N)cc2)cc1 ?
Result string: Condition not met

Query string: Field entry: Nc1ncnc2c1ccn2[C@@H]1O[C@H](CO)[C@@H](O)[C@H]1O
Result string: Condition not met

Query string: Field entry: CC[n+]1c(-c2ccccc2)c2cc(N/N=N/c3cccc(C(=N)N)c3)ccc2c2ccc(N)cc21
Result string: Condition not met

====

# assay.name: Cytotoxicity against MRC-5 fibroblasts
# assay.conditions: human, MRC-5 fibroblasts, MRC-5 EC50, Table 5; cytotoxicity
# EC50 per entry
Value expressed in µM; do not type the unit.

Known EC50 results, listed for orientation:
>>> data_value("CCCOc1ncnc2c1c(Cl)cn2[C@@H]1O[C@H](CO)[C@@H](O)[C@H]1O [FH9532]")
2.81
>>> data_value("Nc1ncnc2c1c(-c1cccc(Cl)c1)cn2[C@@H]1O[C@H](CO)[C@@H](O)[C@H]1O [FH8459]")
32.8
>>> data_value("Nc1ncnc2c1c(-c1ccc(Cl)c(Cl)c1)cn2[C@@H]1O[C@H](CO)[C@@H](O)[C@H]1O [FH3147]")
14.7
>>> data_value("CCCCOc1ncnc2c1c(Cl)cn2[C@@H]1O[C@H](CO)[C@@H](O)[C@H]1O [FH9530]")
1.32

Now take the following molecule into account.
Query string: Query (molecule): Nc1ncnc2c1c(-c1ccc(Cl)cc1)cn2[C@@H]1O[C@H](CO)[C@@H](O)[C@H]1O [TH1012] ; field requested: EC50
Result string: 27

====

# Tested on: T. vaginalis trophozoites (metronidazole susceptible G3 strain)
# assay.name: Trichomonas vaginalis in vitro assay
# Format: cell-based
# assay.conditions: Table 6; average of 2-5 independent replicates
endpoint: EC50

Query string: Query (molecule): Nc1ncnc2c1c(-c1ccc3ccccc3c1)cn2[C@@H]1O[C@H](CO)[C@@H](O)[C@H]1O ; field requested: EC50
Result string: 580 nM

====

# Test system: T. vaginalis trophozoites (metronidazole susceptible G3 strain)
# assay.name: Trichomonas vaginalis in vitro assay
# Type: cell-based
# assay.conditions: Trichomonas vaginalis; Table 6; average of 2-5 independent replicates
# EC50 per entry
Value expressed in nM; do not type the unit.

Known EC50 results, listed for orientation:
>>> data_value("Nc1ncnc2c1c(-c1cccc(Cl)c1)cn2[C@@H]1O[C@H](CO)[C@@H](O)[C@H]1O")
240
>>> data_value("Nc1ncnc2c1c(-c1ccccc1)cn2[C@@H]1O[C@H](CO)[C@@H](O)[C@H]1O")
430
>>> data_value("Nc1ncnc2c1c(-c1ccc(Cl)cn1)cn2[C@@H]1O[C@H](CO)[C@@H](O)[C@H]1O")
860
>>> data_value("Nc1ncnc2c1c(-c1ccc(Cl)cc1)cn2[C@@H]1O[C@H](CO)[C@@H](O)[C@H]1O")
30
>>> data_value("Nc1ncnc2c1c(-c1ccc(F)cc1)cn2[C@@H]1O[C@H](CO)[C@@H](O)[C@H]1O")
110

Query string: Query (compound): Cc1ccc(-c2cn([C@@H]3O[C@H](CO)[C@@H](O)[C@H]3O)c3ncnc(N)c23)cc1 ; field requested: EC50
Result string: 60

Query string: Field entry: Nc1ncnc2c1c(-c1ccc(Cl)c(Cl)c1)cn2[C@@H]1O[C@H](CO)[C@@H](O)[C@H]1O
Result string: 20

====

# Tested on: MRC-5 fibroblasts
# assay.name: Cytotoxicity against MRC-5 fibroblasts
# assay.conditions: read-out: MRC-5 EC50; Table 2; cytotoxicity
# pEC50 per entry
Interpret pEC50 as the negative base-10 log of the concentration measured in mol/L.

>>> data_value("Nc1ncnc2c1c(-c1ccc(OC(F)(F)F)cc1)cn2[C@@H]1O[C@H](CO)C[C@H]1O")
4.39

Now take the following compound into account.
Query string: // map COc1ccc(-c2cn([C@@H]3O[C@H](CO)C[C@H]3O)c3ncnc(N)c23)cc1 to recorded pEC50 (system: MRC-5 fibroblasts)
Result string: 4.61

====

# Tested on: T. vaginalis trophozoites (metronidazole susceptible G3 strain)
# assay.name: Trichomonas vaginalis in vitro assay
# Assay type: cell-based
# assay.conditions: Trichomonas vaginalis; Table 3; average of 2-5 independent replicates
# pEC50 per entry
Interpret pEC50 as the negative base-10 log of the concentration measured in mol/L.

Known pEC50 results, listed for orientation:
>>> data_value("Nc1ncnc2c1c(-c1ccc(Cl)cc1)cn2[C@@H]1O[C@H](CO)C[C@H]1O")
6.77
>>> data_value("Nc1ncnc2c1c(-c1ccc(Cl)c(Cl)c1)cn2[C@@H]1O[C@H](CO)C[C@H]1O")
6.48
>>> data_value("Nc1ncnc2c1c(-c1ccc(C(F)(F)F)cc1)cn2[C@@H]1O[C@H](CO)C[C@H]1O")
6.59

Now take the following compound into account.
Query string: Query (compound): Cc1ncc([N+](=O)[O-])n1CCO [Metronidazole, reference compound] ; field requested: pEC50
Result string: 6.28

====

# EC50 per entry
# System: T. cruzi Tulahuen CL2 β galactosidase strain
# assay.name: T. cruzi Tulahuen CL2 β galactosidase strain on MRC-5SV2 cells (CPRG)
# Type: cell-based, Trypanosoma cruzi
# assay.conditions: Table 5; average of 2-4 independent replicates
Value expressed in µM; do not type the unit.

Known EC50 results, listed for orientation:
>>> data_value("Nc1ncnc2c1c(Cl)cn2[C@@H]1O[C@H](CO)[C@@H](O)[C@H]1O [FH3169]")
0.52
>>> data_value("Cn1cnc(-c2cn([C@@H]3O[C@H](CO)[C@@H](O)[C@H]3O)c3ncnc(N)c23)c1 [FH3182]")
8.34
>>> data_value("Nc1ncnc2c1c(-c1ccc3ccccc3n1)cn2[C@@H]1O[C@H](CO)[C@@H](O)[C@H]1O [MS1017]")
34.1

Now take the following molecule into account.
Query string: Query (molecule): Nc1ncnc2c1c(-c1ccc3ccccc3c1)cn2[C@@H]1O[C@H](CO)[C@@H](O)[C@H]1O [FH8461] ; field requested: EC50
Result string: 2.48

====

# assay.name: Cytotoxicity against MRC-5 fibroblasts
# assay.conditions: human, MRC-5 fibroblasts, MRC-5 EC50, Table 2; cytotoxicity
# EC50 per entry
Value expressed in µM; do not type the unit.

>>> data_value("Nc1ncnc2c1c(Br)cn2[C@@H]1O[C@H](CO)C[C@@H]1O [FH10628]")
45.6
>>> data_value("Nc1ncnc2c1c(Br)cn2[C@@H]1O[C@H](CSCCO)C[C@H]1O [FH9591]")
26.5
>>> data_value("Nc1ncnc2c1c(-c1ccc(Cl)cc1)cn2[C@@H]1O[C@H](CO)C[C@H]1O [FH8512]")
19.1

Now take the following compound into account.
Query string: Query (compound): Nc1ncnc2c1c(-c1ccc(F)c(Cl)c1)cn2[C@@H]1O[C@H](CO)C[C@H]1O [FH10681] ; field requested: EC50
Result string: 45.5

====

# pEC50 per entry
# Test system: MRC-5 fibroblasts
# assay.name: in vitro
Interpret pEC50 as the negative base-10 log of the concentration measured in mol/L.

>>> data_value("CSC[C@@H]1C[C@@H](O)[C@H](n2cc(Br)c3c(N)ncnc32)O1")
4.82
>>> data_value("CCSC[C@@H]1C[C@@H](O)[C@H](n2cc(Br)c3c(N)ncnc32)O1")
4.59

Now take the following molecule into account.
Query string: Query (molecule): Nc1ncnc2c1c(-c1cccc(C(F)(F)F)c1)cn2[C@@H]1O[C@H](CO)C[C@H]1O ; field requested: pEC50
Result string: 4.30

====

# melting point per entry

>>> data_value("CCCC#Cc1cn([C@@H]2O[C@H](CO)C[C@H]2O)c2ncnc(N)c12")
"127 to 129 °C"

Query string: Query (molecule): Nc1ncnc2c1c(CCc1ccccc1)cn2[C@@H]1O[C@H](CO)C[C@H]1O ; field requested: melting point
Result string: 76 °C

====

# assay.name: Cytotoxicity against MRC-5 fibroblasts
# assay.conditions: human, MRC-5 fibroblasts, MRC-5 EC50, Table 1; cytotoxicity
# Procedure: Cytotoxicity was assayed against MRC-5 fibroblasts. Results are depicted in Tables 4 and 5.
# pEC50 per entry
Interpret pEC50 as the negative base-10 log of the concentration measured in mol/L.

Known pEC50 results, listed for orientation:
>>> data_value("Nc1ncnc2c1c(-c1ccc(Cl)c(Cl)c1)cn2[C@@H]1O[C@H](CO)C[C@H]1O [FH8513]")
4.87
>>> data_value("Nc1ncnc2c1c(F)cn2[C@@H]1O[C@H](CO)C[C@H]1O [FH8517]")
5.44
>>> data_value("Cc1ccc(-c2cn([C@@H]3O[C@H](CO)C[C@H]3O)c3ncnc(N)c23)cc1Cl [FH10644]")
4.75
>>> data_value("Nc1ncnc2c1c(Br)cn2[C@@H]1O[C@H](CO)C[C@H]1O [FH7429_U]")
4.79
>>> data_value("Cc1cc(-c2cn([C@@H]3O[C@H](CO)C[C@H]3O)c3ncnc(N)c23)ccc1Cl [FH10648]")
4.78

Now take the following compound into account.
Query string: Query (compound): Nc1ncnc2c1c(Br)cn2[C@@H]1O[C@H](CO)C[C@@H]1O [FH10628] ; field requested: pEC50
Result string: 4.34

Reference source for all entries: patent US11072628B2
